Could you please report measured viability, T/C for the items listed next?
- Tested on: 996289-038-R-J1-PDC complex spheroid viability
- assay summary: Anticancer human tumor 996289-038-R-J1-PDC patient-derived colon adenocarcinoma cell line growth inhibition [CLK]
- measurement setup: second compound 0.316 µM; first compound 0.316 µM; stronger effect = lower value
Give bare numbers, in %.

Example entries and their recorded answers appear below.
>  <compound>
Nc1ccn(C2OC(CO)C(O)C2(F)F)c(=O)n1 (stereo unspecified) + CN1CCN(c2cc(C(=O)Nc3cc4cc(-c5cnn(C)c5)ccc4cn3)ccn2)CC1

>  <viability, T/C / %>
43.3

$$$$
>  <compound>
CCc1c2c(nc3ccc(O)cc13)-c1cc3c(c(=O)n1C2)COC(=O)[C@]3(O)CC + CN1CCN(c2cc(C(=O)Nc3cc4cc(-c5cnn(C)c5)ccc4cn3)ccn2)CC1

>  <viability, T/C / %>
17.7

$$$$
>  <compound>
COC1C=CCC(C)C(C)S(=O)(=O)NC(=O)c2ccc3c(c2)N(CC2CCC21)CC1(CCCc2cc(Cl)ccc21)CO3 (stereo unspecified) + CN1CCN(c2cc(C(=O)Nc3cc4cc(-c5cnn(C)c5)ccc4cn3)ccn2)CC1

>  <viability, T/C / %>
63.6

$$$$
>  <compound>
COc1ccc([C@@H](O)c2cc(-c3ncnc4cc(N5CCOCC5)ccc34)c(F)cc2Cl)nn1 + CN1CCN(c2cc(C(=O)Nc3cc4cc(-c5cnn(C)c5)ccc4cn3)ccn2)CC1

>  <viability, T/C / %>
61.9

$$$$
>  <compound>
CCN1CCN(Cc2ccc(Nc3ncc(F)c(-c4cc(F)c5nc(C)n(C(C)C)c5c4)n3)nc2)CC1 + CN1CCN(c2cc(C(=O)Nc3cc4cc(-c5cnn(C)c5)ccc4cn3)ccn2)CC1

>  <viability, T/C / %>
51.3

$$$$

// batch mode: one viability, T/C value per listed entry
1. Nc1ccccc1NC(=O)c1ccc(CNC(=O)OCc2cccnc2)cc1 + CNC(=O)c1ccc(Nc2nc(OC3CCCC3)c3c(-c4ccc5nc(C)oc5c4)c[nH]c3n2)c(OC)c1
2. C=CC(=O)N1CCN(c2nc(=O)n(-c3c(C)ccnc3C(C)C)c3nc(-c4c(O)cccc4F)c(F)cc23)C(C)C1 (stereo unspecified) + CNC(=O)c1ccc(Nc2nc(OC3CCCC3)c3c(-c4ccc5nc(C)oc5c4)c[nH]c3n2)c(OC)c1

1: 74.3; 2: 76.5

----------
- Tested on: 996289-038-R-J1-PDC complex spheroid viability
- assay summary: Anticancer human tumor 996289-038-R-J1-PDC cell line growth inhibition [CLK];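 further: spheroids exposed to the agents for 7 days before readout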
- measurement setup: second compound 0.0316 µM; first compound 0.01 µM; stronger effect = lower value
Could you please report measured viability, T/C for the items listed next?
One number for each entry, in %.

// batch mode: one viability, T/C value per listed entry
1. CCc1c2c(nc3ccc(O)cc13)-c1cc3c(c(=O)n1C2)COC(=O)[C@]3(O)CC + CN1CCN(c2cc(C(=O)Nc3cc4cc(-c5cnn(C)c5)ccc4cn3)ccn2)CC1
2. CCc1c2c(nc3ccc(O)cc13)-c1cc3c(c(=O)n1C2)COC(=O)[C@]3(O)CC + CNC(=O)c1ccc(Nc2nc(OC3CCCC3)c3c(-c4ccc5nc(C)oc5c4)c[nH]c3n2)c(OC)c1

1. 79.2
2. 89.4

// batch mode: one viability, T/C value per listed entry
1. CCN1CCN(Cc2ccc(Nc3ncc(F)c(-c4cc(F)c5nc(C)n(C(C)C)c5c4)n3)nc2)CC1 + CN1CCN(c2cc(C(=O)Nc3cc4cc(-c5cnn(C)c5)ccc4cn3)ccn2)CC1
2. COc1c(OCCCN2CCOCC2)ccc2c3n(c(=NC(=O)c4cnc(N)nc4)nc12)CCN3 + CN1CCN(c2cc(C(=O)Nc3cc4cc(-c5cnn(C)c5)ccc4cn3)ccn2)CC1
3. COc1c(OCCCN2CCOCC2)ccc2c3n(c(=NC(=O)c4cnc(N)nc4)nc12)CCN3 + CNC(=O)c1ccc(Nc2nc(OC3CCCC3)c3c(-c4ccc5nc(C)oc5c4)c[nH]c3n2)c(OC)c1

[97.3, 88.8, 96.5]

----------
- System: 996289-038-R-J1-PDC complex spheroid viability
- assay summary: Anticancer human tumor 996289-038-R-J1-PDC cell line growth inhibition [CLK];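 further: spheroids exposed to the agents for 7 days before readout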
- measurement setup: second compound 1 µM; first compound 0.0316 µM; stronger effect = lower value
Mark MET only when viability, T/C stays strictly below 8%. Values equal to the cut-off are NOT MET.

Worked examples, 3 compounds total:
>  <compound>
O=C(c1cc(Cc2n[nH]c(=O)c3ccccc23)ccc1F)N1CCN(C(=O)C2CC2)CC1 + CNC(=O)c1ccc(Nc2nc(OC3CCCC3)c3c(-c4ccc5nc(C)oc5c4)c[nH]c3n2)c(OC)c1

>  <category label>
NOT MET

$$$$
>  <compound>
Nc1ccn(C2OC(CO)C(O)C2(F)F)c(=O)n1 (stereo not given) + CN1CCN(c2cc(C(=O)Nc3cc4cc(-c5cnn(C)c5)ccc4cn3)ccn2)CC1

>  <category label>
MET

$$$$
>  <compound>
Cn1ncnc1[C@H]1c2n[nH]c(=O)c3cc(F)cc(c23)N[C@@H]1c1ccc(F)cc1 + CN1CCN(c2cc(C(=O)Nc3cc4cc(-c5cnn(C)c5)ccc4cn3)ccn2)CC1

>  <category label>
MET

$$$$

Moving on to another compound below.
Is viability, T/C strictly under 8% for the entry CCN1CCN(Cc2ccc(Nc3ncc(F)c(-c4cc(F)c5nc(C)n(C(C)C)c5c4)n3)nc2)CC1 + CNC(=O)c1ccc(Nc2nc(OC3CCCC3)c3c(-c4ccc5nc(C)oc5c4)c[nH]c3n2)c(OC)c1 ?
NOT MET

----------
- Tested on: 996289-038-R-J1-PDC complex spheroid viability
- assay summary: Anticancer human tumor 996289-038-R-J1-PDC cell line growth inhibition [CLK]; active = viability on the fitted dose curve at most 10% of control; inactive = the rest;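 further: spheroids exposed to the agents for 7 days before readout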
- measurement setup: second compound 0.316 µM; first compound 0.0949 µM
Response enum: 1 (yes) (active), 0 (no) (inactive)

Worked examples, 5 molecules total:
>  <molecule>
C=CC(=O)Nc1cc(Nc2nccc(-c3cn(C)c4ccccc34)n2)c(OC)cc1N(C)CCN(C)C + CNC(=O)c1ccc(Nc2nc(OC3CCCC3)c3c(-c4ccc5nc(C)oc5c4)c[nH]c3n2)c(OC)c1

>  <category label>
0 (no)

$$$$
>  <molecule>
C=CC(=O)Nc1cc(Nc2nccc(-c3cn(C)c4ccccc34)n2)c(OC)cc1N(C)CCN(C)C + CN1CCN(c2cc(C(=O)Nc3cc4cc(-c5cnn(C)c5)ccc4cn3)ccn2)CC1

>  <category label>
0 (no)

$$$$
>  <molecule>
NC(=O)C(=Cn1cnc(-c2cc(C(F)(F)F)cc(C(F)(F)F)c2)n1)c1cncnc1 + CNC(=O)c1ccc(Nc2nc(OC3CCCC3)c3c(-c4ccc5nc(C)oc5c4)c[nH]c3n2)c(OC)c1

>  <category label>
0 (no)

$$$$
>  <molecule>
CC(C)CC(NC(=O)C(Cc1ccccc1)NC(=O)c1cnccn1)B(O)O (stereo unspecified) + CN1CCN(c2cc(C(=O)Nc3cc4cc(-c5cnn(C)c5)ccc4cn3)ccn2)CC1

>  <category label>
1 (yes)

$$$$
>  <molecule>
NC(=O)C(=Cn1cnc(-c2cc(C(F)(F)F)cc(C(F)(F)F)c2)n1)c1cncnc1 + CN1CCN(c2cc(C(=O)Nc3cc4cc(-c5cnn(C)c5)ccc4cn3)ccn2)CC1

>  <category label>
1 (yes)

$$$$

Moving on to another molecule below.
What classification did CC(C)CC(NC(=O)C(Cc1ccccc1)NC(=O)c1cnccn1)B(O)O (stereo unspecified) + CNC(=O)c1ccc(Nc2nc(OC3CCCC3)c3c(-c4ccc5nc(C)oc5c4)c[nH]c3n2)c(OC)c1 end up with in this test?
1 (yes)

----------
Could you please report measured viability, T/C for the items listed next?
- Test system: 996289-038-R-J1-PDC complex spheroid viability
- assay summary: Anticancer human tumor 996289-038-R-J1-PDC cell line growth inhibition [CLK];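 further: spheroids exposed to the agents for 7 days before readout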
- measurement setup: second compound 3.16 µM; first compound 0.316 µM; stronger effect = lower value
Answers are plain numbers, in %.

Example entries and their recorded answers appear below.
>  <molecule>
O=c1[nH]cc(F)c(=O)[nH]1 + CN1CCN(c2cc(C(=O)Nc3cc4cc(-c5cnn(C)c5)ccc4cn3)ccn2)CC1

>  <assayed system>
996289-038-R-J1-PDC complex spheroid viability

>  <viability, T/C, %>
0.86

$$$$
>  <molecule>
CC1COCCN1c1cc(C2(S(C)(=N)=O)CC2)nc(-c2ccnc3[nH]ccc23)n1 (configuration not stated) + CNC(=O)c1ccc(Nc2nc(OC3CCCC3)c3c(-c4ccc5nc(C)oc5c4)c[nH]c3n2)c(OC)c1

>  <assayed system>
996289-038-R-J1-PDC complex spheroid viability

>  <viability, T/C, %>
55.8

$$$$
>  <molecule>
CC(CO)NC(=O)c1cc(-c2ccc(Cl)cc2)nn(-c2cnn(C)c2)c1=O (configuration not stated) + CN1CCN(c2cc(C(=O)Nc3cc4cc(-c5cnn(C)c5)ccc4cn3)ccn2)CC1

>  <assayed system>
996289-038-R-J1-PDC complex spheroid viability

>  <viability, T/C, %>
2.09

$$$$

// batch mode: one viability, T/C value per listed entry
1. CC1(C)CCC(CN2CCN(c3ccc(C(=O)NS(=O)(=O)c4ccc(NCC5CCOCC5)c([N+](=O)[O-])c4)c(Oc4cnc5[nH]ccc5c4)c3)CC2)=C(c2ccc(Cl)cc2)C1 + CN1CCN(c2cc(C(=O)Nc3cc4cc(-c5cnn(C)c5)ccc4cn3)ccn2)CC1
2. C#Cc1c(F)ccc2cc(O)cc(-c3ncc4c(N5CC6CCC(C5)N6)nc(OCC56CCCN5CC(F)C6)nc4c3F)c12 (configuration not stated) + CN1CCN(c2cc(C(=O)Nc3cc4cc(-c5cnn(C)c5)ccc4cn3)ccn2)CC1
3. C=C(F)C(=O)N1CCN(c2nc(OCC3CCCN3C)nc3c2CCN(c2cccc4cccc(Cl)c24)C3)CC1CC#N (configuration not stated) + CNC(=O)c1ccc(Nc2nc(OC3CCCC3)c3c(-c4ccc5nc(C)oc5c4)c[nH]c3n2)c(OC)c1
4. CC(Nc1ccc2c(c1)OCCn1cc(N3C(=O)OCC3C(F)F)nc1-2)C(N)=O (configuration not stated) + CN1CCN(c2cc(C(=O)Nc3cc4cc(-c5cnn(C)c5)ccc4cn3)ccn2)CC1
5. CCN1CCN(Cc2ccc(Nc3ncc(F)c(-c4cc(F)c5nc(C)n(C(C)C)c5c4)n3)nc2)CC1 + CNC(=O)c1ccc(Nc2nc(OC3CCCC3)c3c(-c4ccc5nc(C)oc5c4)c[nH]c3n2)c(OC)c1
6. Nc1ccccc1NC(=O)c1ccc(CNC(=O)OCc2cccnc2)cc1 + CNC(=O)c1ccc(Nc2nc(OC3CCCC3)c3c(-c4ccc5nc(C)oc5c4)c[nH]c3n2)c(OC)c1
7. C=CC(=O)N1CCN(c2nc(=O)n(-c3c(C)ccnc3C(C)C)c3nc(-c4c(O)cccc4F)c(F)cc23)C(C)C1 (configuration not stated) + CN1CCN(c2cc(C(=O)Nc3cc4cc(-c5cnn(C)c5)ccc4cn3)ccn2)CC1
8. COc1c(OCCCN2CCOCC2)ccc2c3n(c(=NC(=O)c4cnc(N)nc4)nc12)CCN3 + CNC(=O)c1ccc(Nc2nc(OC3CCCC3)c3c(-c4ccc5nc(C)oc5c4)c[nH]c3n2)c(OC)c1

1. 1.42
2. 1.59
3. 56.5
4. 1.63
5. 73.2
6. 63.8
7. 1
8. 13.5

Reported viability, T/C (996289-038-R-J1-PDC complex spheroid viability) for entry CC(=O)O[C@H]1C(=O)[C@@]2(C)[C@H]([C@H](OC(=O)c3ccccc3)[C@]3(O)C[C@H](OC(=O)[C@H](O)[C@@H](NC(=O)c4ccccc4)c4ccccc4)C(C)=C1C3(C)C)[C@]1(OC(C)=O)CO[C@@H]1C[C@@H]2O + CNC(=O)c1ccc(Nc2nc(OC3CCCC3)c3c(-c4ccc5nc(C)oc5c4)c[nH]c3n2)c(OC)c1 is 54

Entry source: PubChem BioAssay AID2060600
